PROCEDURE_TEXT: Volume of distribution at steady state in male ICR mouse at 2 mg/kg, iv measured after 24 hrs by LC-MS/MS analysis
Format: ADME, organism-based
TEST_SETTINGS: in vivo, read-out: Vdss
ENDPOINT_NAME: Vd (L/kg)
Write it as a number; the unit L/kg goes unstated.

Sample `COc1ccc(S(=O)(=O)N[C@H]2CCN(C(=O)CC[C@H](N)C(=O)O)C2)cc1C(=O)Nc1ccccc1Cl.Cl` — what was its Vd?
1.93

* * *

PROCEDURE_TEXT: Ratio of drug concentration in male mouse brain to plasma at 5 mg/kg, ip measured after 0.5 hrs
Format: ADME, organism-based
TEST_SETTINGS: brain and plasma, read-out: BPR
ENDPOINT_NAME: Kp at 0.5 h
// no unit, no text: just the number

Sample `COc1ccc(S(=O)(=O)N[C@H]2CCOC2)cc1C(=O)Nc1ccccc1Cl` — what was its Kp at 0.5 h?
0.53
